- Tested on: mice
- Test Details: Acute toxicity (dead/treated animals)
- Assay type: in vivo
- Experimental Parameters: i.p. 300 mg/kg
So I've got a bunch of compounds here, and I need their acute toxicity (dead/treated animals) values.

// below: answered compounds
[[record]]
compound = "COc1cc2c(cc1OC)C(/C=C/c1ccccc1)=NN(C(C)=O)C(C)C2 (stereo not drawn)"
endpoint_value = "1/5"

[[record]]
compound = "COc1cc2c(cc1OC)C(/C=C/c1cccc(OC)c1OC)=NN(C(C)=O)C(C)C2 (stereo not drawn)"
endpoint_value = "1/5"

[[record]]
compound = "CC1Cc2cc3c(cc2C(/C=C/c2ccccc2)=NN1)OCO3 (stereo not drawn)"
endpoint_value = "0/5"

[[record]]
compound = "CCC1c2cc(OC)c(OC)cc2C(/C=C/c2ccc([N+](=O)[O-])cc2)=NNC1C (stereo not drawn)"
endpoint_value = "0/5"

[[record]]
compound = "COc1cc2c(cc1OC)C(c1cccc(Cl)c1)=NN=C(C)C2 [Girisopam, reference compound]"
endpoint_value = "0/6"


Batch request: acute toxicity (dead/treated animals) per item, same order as input.
1. COc1cccc(/C=C/C2=NN(C(C)=O)C(C)Cc3cc4c(cc32)OCO4)c1OC (stereo not drawn)
2. COc1ccc(/C=C/C2=NNC(C)Cc3cc4c(cc32)OCO4)cc1OC (stereo not drawn)
3. CCC1c2cc3c(cc2C(/C=C/c2ccc(NC(C)=O)cc2)=NN(C(C)=O)C1C)OCO3 (stereo not drawn)
4. COc1cc2c(cc1OC)C(/C=C/c1ccc3c(c1)OCO3)=NNC(C)C2 (stereo not drawn)

# output
0/5
0/5
0/5
0/5

---

Assign Inhibition (%) 60 minutes after drug administration to each entry below.
- Test system: hippocampal CA1 field potentials (glutamate acting mainly through AMPA receptors)
- Test Details: Inhibition of CA1 field potentials in hippocampal slices (glutamatergic transmission), method of Tarnawa et al.
- Design: species or system rat
- Experimental Parameters: 50 μM, 60 minutes after drug administration
Numbers only, in %.

Here's what some known entries look like.
[[record]]
compound = "COc1cc2c(cc1OC)C(/C=C/c1ccc(NC(C)=O)cc1)=NN(C(C)=O)C(C)C2 (stereo not drawn)"
subject_of_test = "hippocampal CA1 field potentials (glutamate acting mainly through AMPA receptors)"
value_units = "%"
endpoint_value = 100

[[record]]
compound = "COc1cc2c(cc1OC)C(/C=C/c1cccc(OC)c1OC)=NN(C(C)=O)C(C)C2 (stereo not drawn)"
subject_of_test = "hippocampal CA1 field potentials (glutamate acting mainly through AMPA receptors)"
value_units = "%"
endpoint_value = 37.0

[[record]]
compound = "CCC1c2cc3c(cc2C(/C=C/c2ccc(NC(C)=O)cc2)=NN(C(C)=O)C1C)OCO3 (stereo not drawn)"
subject_of_test = "hippocampal CA1 field potentials (glutamate acting mainly through AMPA receptors)"
value_units = "%"
endpoint_value = 100

[[record]]
compound = "CC(=O)Nc1ccc(/C=C/C2=NN(C(C)=O)C(C)Cc3cc4c(cc32)OCO4)cc1 (stereo not drawn)"
subject_of_test = "hippocampal CA1 field potentials (glutamate acting mainly through AMPA receptors)"
value_units = "%"
endpoint_value = 25.8

[[record]]
compound = "CC1=NN=C(c2ccc(N)cc2)c2cc3c(cc2C1)OCO3 [GYKI-52466, reference compound]"
subject_of_test = "hippocampal CA1 field potentials (glutamate acting mainly through AMPA receptors)"
value_units = "%"
endpoint_value = 100


Continue with the next compound.
// Inhibition (%) 60 minutes after drug administration lookup, compound = COc1ccc(/C=C/C2=NN(C(C)=O)C(C)Cc3cc(OC)c(OC)cc32)c(OC)c1 (stereo not drawn) , result: 33.7

---

- Tested on: hippocampal CA1 field potentials (glutamate acting mainly through AMPA receptors)
- Test Details: Inhibition of CA1 field potentials in hippocampal slices (glutamatergic transmission), method of Tarnawa et al.
- Parameters: species or system rat
- Experimental Parameters: 50 μM, after 30 minutes wash-out; *p < 0.05 compared to the 60 minutes value
We label by threshold. Values of Inhibition (%) after 30 minutes wash-out strictly beneath 80% are true. Values of 80% and up are false.

# input Is it true that Inhibition (%) after 30 minutes wash-out reported for CC1=NN=C(c2ccc(N)cc2)c2cc3c(cc2C1)OCO3 [GYKI-52466, reference compound] is less than 80%?
# output false

---

- System: hippocampal CA1 field potentials (glutamate acting mainly through AMPA receptors)
- Test Details: Inhibition of CA1 field potentials in hippocampal slices (glutamatergic transmission), method of Tarnawa et al.
- Set-up: species or system rat
- Experimental Parameters: 50 μM, 30 minutes after drug administration
Label True when Inhibition (%) 30 minutes after drug administration is at or above 80%; anything below gets False.

Use the examples below as a reference point.
[[record]]
compound = "CC(=O)Nc1ccc(/C=C/C2=NN(C(C)=O)C(C)Cc3cc4c(cc32)OCO4)cc1 (stereo not drawn)"
qualitative_label = "False"

[[record]]
compound = "COc1cc2c(cc1OC)C(/C=C/c1cccc(OC)c1OC)=NN(C(C)=O)C(C)C2 (stereo not drawn)"
qualitative_label = "False"

[[record]]
compound = "COc1cc2c(cc1OC)C(/C=C/c1ccc(NC(C)=O)cc1)=NN(C(C)=O)C(C)C2 (stereo not drawn)"
qualitative_label = "True"

[[record]]
compound = "COc1ccc(/C=C/C2=NN(C(C)=O)C(C)Cc3cc(OC)c(OC)cc32)c(OC)c1 (stereo not drawn)"
qualitative_label = "False"


Then there is this compound:
# input Exam item: decide whether the reported Inhibition (%) 30 minutes after drug administration for CC1=NN=C(c2ccc(N)cc2)c2cc3c(cc2C1)OCO3 [GYKI-52466, reference compound] is at least 80%.
# output True

---

- System: hippocampal CA1 field potentials (glutamate acting mainly through AMPA receptors)
- Test Details: Inhibition of CA1 field potentials in hippocampal slices (glutamatergic transmission), method of Tarnawa et al.
- Design: species or system rat
- Experimental Parameters: 50 μM, after 30 minutes wash-out; *p < 0.05 compared to the 60 minutes value
Please provide measured Inhibition (%) after 30 minutes wash-out for the entries that follow.
Numbers only, in %.

Example cases with answers are listed next.
[[record]]
compound = "CC(=O)Nc1ccc(/C=C/C2=NN(C(C)=O)C(C)Cc3cc4c(cc32)OCO4)cc1 (centres unmarked)"
observable = "Inhibition (%) after 30 minutes wash-out"
endpoint_value = 35.4

[[record]]
compound = "COc1ccc(/C=C/C2=NN(C(C)=O)C(C)Cc3cc(OC)c(OC)cc32)c(OC)c1 (centres unmarked)"
observable = "Inhibition (%) after 30 minutes wash-out"
endpoint_value = 61.1

[[record]]
compound = "COc1cc2c(cc1OC)C(/C=C/c1cccc(OC)c1OC)=NN(C(C)=O)C(C)C2 (centres unmarked)"
observable = "Inhibition (%) after 30 minutes wash-out"
endpoint_value = 74.3


Parameters: items (list). Returns: Inhibition (%) after 30 minutes wash-out for each item.
1. CCC1c2cc3c(cc2C(/C=C/c2ccc(NC(C)=O)cc2)=NN(C(C)=O)C1C)OCO3 (centres unmarked)
2. COc1cc2c(cc1OC)C(/C=C/c1ccc(NC(C)=O)cc1)=NN(C(C)=O)C(C)C2 (centres unmarked)

# output
[98.6, 97.5]
